Assay: Half-wave potentials by cyclic voltammetry
Format: physicochemical
Settings: acetonitrile, platinum electrode, room temperature, negative of the potential
Description: Calculation of lipophilicity (ClogP) and molar refractivity (CMR) was assessed by using the ChemBioDraw Ultra 11.0 software and the obtained values are shown in Table 3. Redox potentials of 2-phenylamino-3-acyl-1,4-naphtoquinones 1–14 were measured by cyclic voltammetry at room temperature in acetonitrile as solvent using a platinum electrode and 0.1M tetraethylammonium tetrafluoroborate as the supporting electrolyte.
Tag: yes (1) if measured −E^I½ (mV) is not below 600 mV, no (0) if it is.

Hi team, for COc1ccc(C(=O)C2=C(Nc3ccccc3)C(=O)c3ccccc3C2=O)cc1 , is the recorded −E^I½ (mV) at or above 600 mV?
yes (1)

Given the entry COc1cccc(C(=O)C2=C(Nc3ccccc3)C(=O)c3ccccc3C2=O)c1 , answer whether its −E^I½ (mV) meets or surpasses 600 mV.
no (0)
